- target: T1, CSP Protein (Plasmodium falciparum, UniProt Q7K740 19-374)
- T1 construct: also called circumsporozoite protein; complete CSP protein
- T1 sequence (Q7K740 19-374 limits assumed): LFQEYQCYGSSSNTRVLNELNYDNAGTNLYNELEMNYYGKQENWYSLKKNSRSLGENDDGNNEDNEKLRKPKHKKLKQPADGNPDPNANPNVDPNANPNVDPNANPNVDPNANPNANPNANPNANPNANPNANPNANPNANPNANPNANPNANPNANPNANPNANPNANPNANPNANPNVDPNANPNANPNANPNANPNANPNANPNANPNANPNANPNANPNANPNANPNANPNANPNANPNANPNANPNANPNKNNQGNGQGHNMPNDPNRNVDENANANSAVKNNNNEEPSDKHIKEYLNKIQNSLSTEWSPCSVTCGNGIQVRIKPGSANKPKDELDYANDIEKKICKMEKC
- procedure.summary: SPR, antibody on chip;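 also: antibodies immobilized on a Carterra chip, directly or via anti-human Fc capture, at two spots each, with CSP flowed over at 4-5 concentrations peaking at 0.5-8 µg/mL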
measured.property: pKd
// pKd here means minus log10 of the molar concentration (mol/L)

>>> value_reported("AB-007047 (antibody, V domains shown) VH: QMQLVESGGGVVQPGRSLRLSCTASGFTFSNYAMHWVRQSPGQGLQWVAVISYHSTNKYYEDSVRGRFTISRDNSKNTLYLQMNSLRAEDTAVYYCARDGYSSSFFDFWGQGTLVTVSS VL: DIQMTQSPSTLSASVGDRVAITCRASQSISRWLAWYQQQPGKAPKLLMSGASVLESGVPSRFSGSGSGTEFTLTISSLQPDDFATYYCQHYNSYFVTFGQGTKVEIK")
9.76

Consider the binder shown here: AB-007064 (antibody, V domains shown) VH: QMQLVESGGGVVQPGRSLRLSCTASGFTFSTYAMHWVRQSPGQGLQWVAVISYHSTNKYYEDSVRGRFTISRDNSKNTLYLQMNSLRAEDTAVYYCARDGYSSSFFDFWGQGTLVTVSS VL: DIQMTQSPSTLSASVGDRVAITCRASQSISRWLAWYQQQPGKAPKLLMTGASVLESGVPSRFSGSGSGTEFTLTISSLQPDDFATYYCQHYNSYFVTFGQGTKVEIK What is its recorded pKd?
9.25

Now the same for AB-007028 (antibody, V domains shown) VH: QMQLVESGGGVVQPGRSLRLSCAASGFTFSTYAMHWVRQAPGQGLQWVAVISYHSTNKYYEDSVRGRFTISRDNSKNTLYLQMNSLRAEDTAVYYCARDGYSSSFFDFWGQGTLVTVSS VL: DIQMTQSPSTLSASVGDRVTITCRASQSISRWLAWYQQQPGKAPKLLMSGASVLESGVPSRFSGSGSGTEFTLTISSLQPDDFATYYCQHYNSYFVTFGQGTKVEIK
10.34
